- test.system: UniProtKB P28223
- Sequence (P28223 whole entry): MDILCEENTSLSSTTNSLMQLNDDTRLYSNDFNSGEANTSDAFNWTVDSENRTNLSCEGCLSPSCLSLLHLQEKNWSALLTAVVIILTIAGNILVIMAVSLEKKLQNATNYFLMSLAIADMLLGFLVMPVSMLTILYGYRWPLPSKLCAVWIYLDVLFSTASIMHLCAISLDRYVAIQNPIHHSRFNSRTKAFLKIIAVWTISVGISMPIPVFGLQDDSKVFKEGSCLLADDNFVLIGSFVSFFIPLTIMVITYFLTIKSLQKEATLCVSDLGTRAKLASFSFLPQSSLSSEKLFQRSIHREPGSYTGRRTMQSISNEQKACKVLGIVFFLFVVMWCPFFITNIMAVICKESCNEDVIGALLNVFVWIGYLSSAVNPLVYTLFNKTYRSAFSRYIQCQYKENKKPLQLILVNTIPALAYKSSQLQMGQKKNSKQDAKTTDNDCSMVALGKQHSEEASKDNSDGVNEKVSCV
- assay.overview: Agonist activity at 5-HT2A receptor
observed.property: Ki (nM)

[
  {
    "compound": "O=c1[nH]c2cccc(N3C[C@H]4C[C@@H]3CN4CC3CCc4[nH]c5ccc(F)cc5c4C3)c2o1 (stereo not given in full)",
    "Ki [nM]": 1800
  },
  {
    "compound": "O=C1Cc2c(ccc3c2OC[C@H](CNCC2CCc4[nH]c5ccc(F)cc5c4C2)O3)N1 (stereo in doubt; 25)",
    "Ki [nM]": 2
  }
]

(P) O=C1Cc2c(ccc3c2OC[C@H](CNCC2CCc4[nH]c5ccc(F)cc5c4C2)O3)N1 (single isomer, unassigned)
(Q) O=C1Cc2c(ccc3c2OC[C@H](CNCCCC2CCc4c([nH]c5ccc(F)cc45)C2)O3)N1 (stereo in doubt; 22)
(R) O=c1[nH]c2cccc(N3CCN(CC4CCc5[nH]c6ccc(F)cc6c5C4)CC3)c2o1 (single isomer, unassigned; 31)
### Prompt List the 3 entries from lowest Ki to highest Ki value. List each label, following the requested order.
### Response P, Q, R
(P: 2 nM, Q: 6 nM, R: 130 nM)
